- tgt: Motilin receptor (Homo sapiens, UniProt O43193)
- Sequence (O43193 whole entry): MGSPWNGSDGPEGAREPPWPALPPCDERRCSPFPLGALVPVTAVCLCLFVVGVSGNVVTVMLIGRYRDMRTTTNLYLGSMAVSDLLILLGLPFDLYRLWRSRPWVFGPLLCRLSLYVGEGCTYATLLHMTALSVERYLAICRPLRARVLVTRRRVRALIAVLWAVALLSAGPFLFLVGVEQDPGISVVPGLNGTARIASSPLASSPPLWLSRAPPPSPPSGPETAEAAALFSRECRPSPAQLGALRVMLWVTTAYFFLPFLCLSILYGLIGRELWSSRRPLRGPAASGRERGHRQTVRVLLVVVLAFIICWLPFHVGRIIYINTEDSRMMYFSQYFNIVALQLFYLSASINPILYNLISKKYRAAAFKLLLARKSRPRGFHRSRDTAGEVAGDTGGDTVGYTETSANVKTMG
- assay: Agonist activity at human recombinant motilin receptor expressed in HEK293 cells by calcium mobilization-based FLIPR assay
- Format: functional, cell-based
pEC50: −log10 of the molar value.
reported-endpoint: pEC50

{"structure-smiles-string": "COc1cccc(CCN(Cc2ccccc2-c2ccc(CN3CCNCC3)cc2)C(=O)NC2CCCCC2)c1", "tgt": "Motilin receptor (Homo sapiens, UniProt O43193)", "recorded-measurement": 7.00}
{"structure-smiles-string": "O=C(NC1CCCCC1)N(CCc1ccccc1)Cc1ccccc1-c1cccc(CN2CCNCC2)c1", "tgt": "Motilin receptor (Homo sapiens, UniProt O43193)", "recorded-measurement": 5.80}
{"structure-smiles-string": "COCCCN(Cc1ccccc1-c1ccc(CN2CCNCC2)cc1)C(C)=O", "tgt": "Motilin receptor (Homo sapiens, UniProt O43193)", "recorded-measurement": 6.20}
{"structure-smiles-string": "COc1cccc(CCN(Cc2ccccc2-c2ccc(CN3CCNCC3)cc2)C(=O)Cc2ccccc2)c1", "tgt": "Motilin receptor (Homo sapiens, UniProt O43193)", "recorded-measurement": 6.00}
{"structure-smiles-string": "COc1cccc(CCNCc2ccccc2-c2ccc(CN3CCNCC3)cc2)c1", "tgt": "Motilin receptor (Homo sapiens, UniProt O43193)", "recorded-measurement": 5.30}
{"structure-smiles-string": "COCCCN(Cc1ccccc1-c1ccc(CN2CCNCC2)cc1)C(=O)NC1CCCCC1", "tgt": "Motilin receptor (Homo sapiens, UniProt O43193)", "recorded-measurement": 6.30}
{"structure-smiles-string": "COCCCN(Cc1ccccc1-c1ccc(CN2CCNCC2)cc1)S(=O)(=O)c1ccc(F)cc1", "tgt": "Motilin receptor (Homo sapiens, UniProt O43193)", "recorded-measurement": 6.20}

----------
- tgt: Motilin receptor (Homo sapiens, UniProt O43193)
- assay: Intrinsic activity at human recombinant motilin receptor expressed in CHO cells by calcium mobilization-based FLIPR assay relative to motilin
- Type: functional, cell-based
Labelling field: enter 1.0 if recorded Activity is less than 0.9. Enter 0.0 if it equals or exceeds that cut-off.

{"structure-smiles-string": "COc1cccc(CCN(Cc2ccccc2-c2ccc(CC3CCNCC3)cc2)C(=O)NC2CCCCC2)c1", "label-value": 1.0}
{"structure-smiles-string": "COc1cccc(CCN(Cc2ccccc2-c2ccc(CN3C[C@@H](C)N[C@@H](C)C3)cc2)C(=O)NC2CCCCC2)c1", "label-value": 0.0}
{"structure-smiles-string": "COCCCN(Cc1ccccc1-c1ccc(CN(C)CCN(C)C)cc1)C(=O)Cc1ccccc1", "label-value": 1.0}
{"structure-smiles-string": "COCCCN(Cc1ccccc1-c1ccc(CN2CCNCC2)cc1)C(=O)Cc1ccccc1", "label-value": 1.0}

----------
- tgt: Growth hormone secretagogue receptor type 1 (Homo sapiens) (UniProt Q92847)
- Sequence (Q92847 whole entry, looked up): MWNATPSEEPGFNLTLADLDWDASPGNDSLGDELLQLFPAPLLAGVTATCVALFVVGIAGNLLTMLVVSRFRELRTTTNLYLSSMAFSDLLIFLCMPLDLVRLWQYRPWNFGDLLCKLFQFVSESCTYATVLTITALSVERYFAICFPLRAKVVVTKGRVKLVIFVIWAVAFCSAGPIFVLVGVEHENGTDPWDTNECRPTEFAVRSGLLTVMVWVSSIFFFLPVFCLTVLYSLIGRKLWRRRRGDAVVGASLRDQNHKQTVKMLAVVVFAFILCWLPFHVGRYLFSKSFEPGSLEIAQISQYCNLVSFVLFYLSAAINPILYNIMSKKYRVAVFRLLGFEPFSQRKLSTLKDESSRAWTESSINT
- assay: Activity at ghrelin receptor in human recombinant cells by calcium mobilization-based FLIPR assay
reported-endpoint: EC50 (nM)

{"structure-smiles-string": "COc1cccc(CCN(Cc2ccccc2-c2ccc(CN3C[C@@H](C)N[C@@H](C)C3)cc2)C(=O)NC2CCCCC2)c1", "tgt": "Growth hormone secretagogue receptor type 1 (Homo sapiens) (UniProt Q92847)", "reported-endpoint": "EC50", "u": "nM", "recorded-measurement": 126}

----------
Property: pEC50; scope: individual compounds
- tgt: Motilin receptor (Homo sapiens)
- assay: Agonist activity at human recombinant motilin receptor expressed in CHO cells by calcium mobilization-based FLIPR assay
- Assay type: functional, cell-based
pEC50: −log10 of the molar value.

{"structure-smiles-string": "COCCCN(Cc1ccccc1-c1ccc(CN2CCN(C(C)=O)CC2)cc1)C(=O)Cc1ccccc1", "pEC50": "< 4.90"}
{"structure-smiles-string": "COCCCN(Cc1ccccc1-c1ccc(CN2CCOCC2)cc1)C(=O)Cc1ccccc1", "pEC50": "< 4.90"}
{"structure-smiles-string": "COCCCN(Cc1ccccc1-c1ccc(C(=O)N2CCNCC2)cc1)C(=O)Cc1ccccc1", "pEC50": "< 5.50"}
{"structure-smiles-string": "COCCCN(Cc1ccccc1-c1ccc(CN2CCN(C)CC2)cc1)C(=O)Cc1ccccc1", "pEC50": "< 4.90"}
{"structure-smiles-string": "COCCCN(Cc1ccccc1-c1ccc(CN(C)CCN(C)C)cc1)C(=O)Cc1ccccc1", "pEC50": 5.50}
{"structure-smiles-string": "COc1cccc(CCN(Cc2ccccc2-c2ccc(N3CCNCC3)cc2)C(=O)NC2CCCCC2)c1", "pEC50": 5.30}

----------
- assay: Half life in New Zealand White rabbit gastric antrum at 3 uM
- Type: ADME, tissue-based, Oryctolagus cuniculus, Stomach

{"molecule": "CC[C@H]1OC(=O)[C@H](C)[C@@H](O[C@H]2C[C@@](C)(OC)[C@@H](O)[C@H](C)O2)[C@H](C)[C@@H](O[C@@H]2O[C@H](C)C[C@H](N(C)C)[C@H]2O)[C@](C)(O)C[C@@H](C)C(=O)[C@H](C)[C@@H](O)[C@]1(C)O [ERYTHROMYCIN]", "u": "min", "half-life at 3 µM": 23}

----------
- tgt: Motilin receptor (Homo sapiens)
- assay: Agonist activity at human recombinant motilin receptor expressed in CHO cells by calcium mobilization-based FLIPR assay
- Type: functional, cell-based
pEC50: −log10 of the molar value.
reported-endpoint: pEC50

{"structure-smiles-string": "COc1cccc(CCN(Cc2ccccc2-c2ccc(CC3CCNCC3)cc2)C(=O)NC2CCCCC2)c1", "comparator": "=", "recorded-measurement": 6.40}
{"structure-smiles-string": "COCCCN(Cc1ccccc1-c1ccc(CN2CCCCC2)cc1)C(=O)Cc1ccccc1", "comparator": "<", "recorded-measurement": 4.90}
{"structure-smiles-string": "COCCCN(Cc1ccccc1-c1ccc(CN2CCNCC2)cc1)C(=O)Cc1ccccc1", "comparator": "=", "recorded-measurement": 6.10}
{"structure-smiles-string": "COc1cccc(CCN(Cc2ccccc2-c2ccc(CCN3CCNCC3)cc2)C(=O)NC2CCCCC2)c1", "comparator": "<", "recorded-measurement": 4.90}
{"structure-smiles-string": "COc1cccc(CCN(Cc2ccccc2-c2ccc(CN3CCNCC3)cc2)C(=O)NC2CCCCC2)c1", "comparator": "=", "recorded-measurement": 7.30}
